Recorded inhibition by entry
MEASUREMENT NOTES: cytotoxicity in IEC-6 intestinal epithelial cells, primary screen, cytotoxicity control for KLF5 inhibitor project, cell-based, luminescence (AID 1825);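 also: 0% = plate median of test compound wells and 100% = cytotoxic reference compound wells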
CONDITIONS USED: IEC-6 cytotoxicity, luminescence viability; at 5 µM; stronger effect = higher value
Out of some 290,000 compounds screened, about 2,300 (0.79%) were called active. The entries come from a sample that favours actives as a whole.
PROPERTY: inhibition

* COc1ccc(C(=O)CC2C(=O)N(C)C(=O)N(C)C2=O)cc1 | 2% (inactive)
* COc1cc(Cn2c(N)c(C(=O)NCc3ccco3)c3nc4ccccc4nc32)cc(OC)c1OC | 7.4% (inactive)
* CC(=O)c1c(C)n(C(C)C)c2ccc(O)cc12 | 3.8% (inactive)
* Cc1nc2ccccc2c(=O)n1-c1ccc(Cl)cc1Cl | -4.8% (inactive)
* CCOP(=S)(OCC)C(O)CCCCCn1c(=O)c(F)cn(C2CCCO2)c1=O (stereo not given) | -1.2% (inactive)
* COc1cccc(N2C(=O)NC(=O)/C(=C\c3ccc([N+](=O)[O-])s3)C2=O)c1 | -9.9% (inactive)
* COc1ccc(-c2nn(CCC#N)cc2C(=O)Nc2ccc(C(C)=O)cc2)cc1 | -1.6% (inactive)
* Cc1cc2ccccn2c1C(C[N+](=O)[O-])c1c(F)cccc1Cl (stereo not given) | 47.4% (active)
* O=c1c2ccccc2nc(/C=C/c2ccco2)n1-c1ccccc1O | -4.9% (inactive)
* COc1cc2nc(N3CCN(C(=O)[C@@H]4CCCO4)CC3)nc(N)c2cc1OC | -0.7% (inactive)

* * *

MEASUREMENT NOTES: cytotoxicity in IEC-6 intestinal epithelial cells, primary screen, cytotoxicity control for KLF5 inhibitor project, cell-based, luminescence (AID 1825);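 also: 0% = plate median of test compound wells and 100% = cytotoxic reference compound wells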
CONDITIONS USED: IEC-6 cytotoxicity, luminescence viability; at 5 µM; stronger effect = higher value
Out of some 290,000 compounds screened, about 2,300 (0.79%) were called active. Only a selection was taken, and actives are over-represented in it overall.
PROPERTY: inhibition (%)

• CCOc1cccc(=NC2CCCCC2)c2c(C)[nH]c(C)c12 = -11.4
• CN(c1ccccc1)c1ccc([N+](=O)[O-])c2nonc12 = 13.2
• COc1ccc(-c2nn(CCC#N)cc2C(=O)O)cc1 = -8.6
• COc1cc(-n2c(=S)[nH]c3ccc(C)cc3c2=O)c(Cl)cc1Cl = 27.3
• CCc1nc2ccccc2c(=O)n1-c1cccc(OC)c1 = -0.6

Values from PubChem BioAssay AID1825
